test: […] stability in human liver microsomes assessed as intrinsic clearance preincubated for 10 mins followed by NADPH addition by LC-MS/MS analysis; assay type: ADME, Microsome; conditions: read-out: CLH
quantity: CLint scaled (mL/min/kg)
Your answer should be a plain number; it is taken to be in mL/min/kg.

(Q) Recorded CLint scaled for CCN1CCc2cc(-c3nc(Nc4ccc(N5CCNCC5)cn4)ncc3F)ccc2C1=O , please?
(A) 11.5

* * *

assay: MRT (0 to infinity) in Sprague-Dawley rat 1 mg/kg, iv by LC/MS/MS analysis; format: ADME, organism-based; conditions: in vivo
quantity: MRT inf (h)
Express the result in h but write the number alone.

(Q) For the molecule CCN1CCc2cc(-c3nc(Nc4ccc(N5CCNCC5)cn4)ncc3F)ccc2C1=O , what MRT inf is on record?
(A) 3.5

* * *

experiment: […] stability in human liver microsomes assessed as half life preincubated for 10 mins followed by NADPH addition by LC-MS/MS analysis; assay type: ADME, Microsome
quantity: half-life (h)
Entry rule: numbers only, all in h.

(Q) What does the record list as half-life for CCN1CCc2cc(-c3nc(Nc4ccc(N5CCNCC5)cn4)ncc3F)ccc2C1=O ?
(A) 1.8

* * *

biological target: CDK7/Cyclin H/MNAT1 (Homo sapiens); experiment: Inhibition of CDK7/cyclin H/MAT1 (unknown origin) in presence of ATP by time resolved-FRET assay
Sequence (P51946 whole entry): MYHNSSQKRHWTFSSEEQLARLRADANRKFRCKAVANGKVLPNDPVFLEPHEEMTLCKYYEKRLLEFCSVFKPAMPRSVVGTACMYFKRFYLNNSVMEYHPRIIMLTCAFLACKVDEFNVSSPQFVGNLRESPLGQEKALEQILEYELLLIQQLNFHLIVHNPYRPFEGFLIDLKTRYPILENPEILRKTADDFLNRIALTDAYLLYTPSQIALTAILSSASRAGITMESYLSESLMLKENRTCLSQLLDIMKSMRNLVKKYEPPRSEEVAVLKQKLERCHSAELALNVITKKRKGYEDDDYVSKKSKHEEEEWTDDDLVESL
Sequence (P50613 whole entry): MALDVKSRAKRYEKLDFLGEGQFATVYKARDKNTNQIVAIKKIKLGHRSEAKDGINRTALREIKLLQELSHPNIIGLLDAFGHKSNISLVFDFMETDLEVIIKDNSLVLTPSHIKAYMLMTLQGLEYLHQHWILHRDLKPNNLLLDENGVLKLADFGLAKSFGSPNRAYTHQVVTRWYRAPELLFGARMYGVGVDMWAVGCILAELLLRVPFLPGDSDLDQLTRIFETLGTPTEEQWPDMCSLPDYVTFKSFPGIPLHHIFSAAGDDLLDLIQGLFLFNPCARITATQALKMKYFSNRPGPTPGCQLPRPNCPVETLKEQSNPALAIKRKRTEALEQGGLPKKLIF
Sequence (P51948 whole entry, further chain): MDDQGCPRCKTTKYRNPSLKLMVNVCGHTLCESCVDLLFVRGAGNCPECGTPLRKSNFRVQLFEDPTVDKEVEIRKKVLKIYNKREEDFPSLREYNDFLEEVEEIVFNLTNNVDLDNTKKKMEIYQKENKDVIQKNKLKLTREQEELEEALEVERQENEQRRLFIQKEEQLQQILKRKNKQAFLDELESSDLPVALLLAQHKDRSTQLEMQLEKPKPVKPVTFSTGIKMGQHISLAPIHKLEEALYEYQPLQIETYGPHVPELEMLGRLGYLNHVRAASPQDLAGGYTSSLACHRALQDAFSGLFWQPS
quantity: pIC50
Give only the number. pIC50 is defined as minus log10 of concentration in molar units.

Completed entries (count: 2):
(Q) So what pIC50 did CC(C)N1CCc2cc(-c3nc(Nc4ccc(N5CCNCC5)cn4)ncc3F)ccc2C1=O get with CDK7/Cyclin H/MNAT1 (Homo sapiens)?
(A) 5.06

(Q) API: value(readout= pIC50, system= CDK7/Cyclin H/MNAT1 (Homo sapiens), query= CCN1CCc2cc(-c3nc(Nc4ccc(N5CCNCC5)cn4)ncc3F)ccc2C1=O )
(A) 5.59

Now consider a different compound.
(Q) // map O=C1NCCc2cc(-c3nc(Nc4ccc(N5CCNCC5)cn4)ncc3F)ccc21 to recorded pIC50 (system: CDK7/Cyclin H/MNAT1 (Homo sapiens))
(A) 5.08

* * *

test: MRT (0 to infinity) in Sprague-Dawley rat 10 mg/kg, po by LC/MS/MS analysis; format: ADME, organism-based; settings: in vivo
quantity: MRT inf (h)
Your answer should be a plain number; it is taken to be in h.

(Q) Value lookup for MRT inf; key = CCN1CCc2cc(-c3nc(Nc4ccc(N5CCNCC5)cn4)ncc3F)ccc2C1=O
(A) 9.11

* * *

Measured IC50 by item
target: CDK2/Cyclin A2 (Homo sapiens); assay: Inhibition of CDK2/Cyclin A (unknown origin) in presence of ATP by time resolved-FRET assay
Your answer is read as nM, so omit the unit and give the number.

A selection of reference data follows.
(Q) Which IC50 reading was recorded for the compound O=C1NCCc2cc(-c3nc(Nc4ccc(N5CCNCC5)cn4)ncc3F)ccc21 ?
(A) 175

(Q) Returns the measured IC50 for the input compound. Input: CC(C)N1CCc2cc(-c3nc(Nc4ccc(N5CCNCC5)cn4)ncc3F)ccc2C1=O
(A) 495

---
(Q) Would you kindly share the measured IC50 for CCN1CCc2cc(-c3nc(Nc4ccc(N5CCNCC5)cn4)ncc3F)ccc2C1=O ?
(A) 1050

(Q) // returns reported IC50 for input CN1CCc2cc(-c3nc(Nc4ccc(N5CCNCC5)cn4)ncc3F)ccc2C1=O
(A) 676

* * *

This listing pairs compounds with measured IC50.
target: CDK4/Cyclin D3 (Homo sapiens, UniProt P11802); assay: Inhibition of CDK4/cyclin-D3 (unknown origin) in presence of ATP by time resolved-FRET assay
Sequence (P11802 whole entry): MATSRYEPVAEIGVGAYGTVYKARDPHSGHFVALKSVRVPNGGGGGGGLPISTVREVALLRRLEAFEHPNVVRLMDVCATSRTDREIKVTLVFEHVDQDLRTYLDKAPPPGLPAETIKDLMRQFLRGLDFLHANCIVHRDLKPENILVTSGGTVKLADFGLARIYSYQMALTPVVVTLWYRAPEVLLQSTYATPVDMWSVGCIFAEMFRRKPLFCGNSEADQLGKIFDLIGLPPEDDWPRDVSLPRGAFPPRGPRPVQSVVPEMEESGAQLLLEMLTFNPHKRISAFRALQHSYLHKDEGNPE
Sequence (P30281 whole entry, further chain): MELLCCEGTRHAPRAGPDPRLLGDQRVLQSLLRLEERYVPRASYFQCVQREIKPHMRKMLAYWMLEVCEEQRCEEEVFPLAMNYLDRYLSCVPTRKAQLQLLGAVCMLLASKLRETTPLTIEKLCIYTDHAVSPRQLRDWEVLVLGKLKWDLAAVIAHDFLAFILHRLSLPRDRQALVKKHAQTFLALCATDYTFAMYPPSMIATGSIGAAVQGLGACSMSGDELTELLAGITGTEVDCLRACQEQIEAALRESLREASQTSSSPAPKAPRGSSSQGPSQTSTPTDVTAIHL
Reply with just the number (in nM).

Please review the entries below; each comes with its answer.
(Q) Give its IC50 value. Item: O=C1NCCc2cc(-c3nc(Nc4ccc(N5CCNCC5)cn4)ncc3F)ccc21
(A) 8

(Q) // query IC50 value for entry Fc1cnc(Nc2ccc(N3CCNCC3)cn2)nc1-c1ccc2c(c1)OCCO2
(A) 36

(Q) Report IC50 for CCN1CCN(Cc2ccc(Nc3ncc(F)c(-c4ccc5c(c4)OCCO5)n3)nc2)CC1 please.
(A) 80

(Q) Recorded IC50 for CC(C)N1CCc2cc(-c3nc(Nc4ccc(N5CCNCC5)cn4)ncc3F)ccc2C1=O , please?
(A) 14

New cases:
(Q) Query: IC50; subject: CCN1CCc2cc(-c3nc(Nc4ccc(N5CCNCC5)cn4)ncc3F)ccc2C1=O
(A) 10

(Q) Suppose we examine the compound CCN1CCN(C(=O)c2ccc(Nc3ncc(F)c(-c4ccc5c(c4)CCNC5=O)n3)nc2)CC1 ; what IC50 value has been reported?
(A) 21

(Q) Fill in: IC50 of CN1CCc2cc(-c3nc(Nc4ccc(N5CCNCC5)cn4)ncc3F)ccc2C1=O is ___
(A) 3

* * *

experiment: Cmax in Sprague-Dawley rat 1 mg/kg, iv by LC/MS/MS analysis; type: ADME, organism-based; set-up: dose 1 mg/kg, route iv; details: in vivo
quantity: Cmax (ng/mL)
Report the value in ng/mL with no unit label.

(Q) Consider the compound CCN1CCc2cc(-c3nc(Nc4ccc(N5CCNCC5)cn4)ncc3F)ccc2C1=O and give its measured Cmax.
(A) 291

* * *

assay: AUC (0 to infinity) in Sprague-Dawley rat 1 mg/kg, iv by LC/MS/MS analysis; assay type: ADME, organism-based; set-up: time infinity, dose 1 mg/kg, route iv; conditions: in vivo
quantity: AUC(0-inf)

(Q) Can you share its AUC(0-inf)? I mean this molecule: CCN1CCc2cc(-c3nc(Nc4ccc(N5CCNCC5)cn4)ncc3F)ccc2C1=O
(A) 373 ng·h/mL

* * *

assay: Tmax in Sprague-Dawley rat 1 mg/kg, iv by LC/MS/MS analysis; assay type: ADME, organism-based; settings: in vivo
quantity: Tmax
Could you write the number and then its unit?

(Q) Consider the compound CCN1CCc2cc(-c3nc(Nc4ccc(N5CCNCC5)cn4)ncc3F)ccc2C1=O and give its measured Tmax.
(A) 1.98 min

* * *

assay: Thermodynamic solubility of the compound incubated for 24 hrs under shaking condition by LC-MS/MS analysis; assay type: physicochemical; conditions: read-out: Therm_solubility
quantity: solubility thermodynamic at 24 h
Phrase the answer as number then unit, nothing more needed.

(Q) GET /values?readout=solubility thermodynamic at 24 h&item= CCN1CCc2cc(-c3nc(Nc4ccc(N5CCNCC5)cn4)ncc3F)ccc2C1=O
(A) 1020 µg/mL

* * *

molecular target: CDK6/cyclin D1 (Homo sapiens); test: Inhibition of CDK6/cyclin-D1 (unknown origin) in presence of ATP by time resolved-FRET assay; type: protein-complex assay
Sequence (P24385 whole entry): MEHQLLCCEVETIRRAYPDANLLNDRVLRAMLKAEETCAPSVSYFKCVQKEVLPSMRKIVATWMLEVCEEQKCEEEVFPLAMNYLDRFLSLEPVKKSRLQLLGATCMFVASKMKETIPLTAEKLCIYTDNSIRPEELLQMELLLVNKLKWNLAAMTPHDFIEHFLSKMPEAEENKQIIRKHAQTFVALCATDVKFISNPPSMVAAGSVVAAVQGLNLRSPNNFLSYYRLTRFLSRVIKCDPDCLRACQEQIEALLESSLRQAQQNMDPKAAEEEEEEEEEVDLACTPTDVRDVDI
Sequence (Q00534 whole entry): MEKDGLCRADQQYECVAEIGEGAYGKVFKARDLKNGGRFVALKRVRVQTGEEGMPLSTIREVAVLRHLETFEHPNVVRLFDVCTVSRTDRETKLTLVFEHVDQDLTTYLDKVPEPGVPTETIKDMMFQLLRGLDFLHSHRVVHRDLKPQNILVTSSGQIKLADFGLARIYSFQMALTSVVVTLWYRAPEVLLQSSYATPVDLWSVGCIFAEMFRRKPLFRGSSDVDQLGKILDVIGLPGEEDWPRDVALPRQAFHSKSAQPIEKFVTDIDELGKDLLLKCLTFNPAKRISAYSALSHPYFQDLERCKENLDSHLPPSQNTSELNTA
quantity: log10(IC50) (log10 of the value in nM)
Scale: decimal log of IC50, IC50 in nM.

(Q) GET /values?readout=log10(IC50)&system=CDK6/cyclin D1 (Homo sapiens)&item= CCN1CCN(C(=O)c2ccc(Nc3ncc(F)c(-c4ccc5c(c4)OCCO5)n3)nc2)CC1
(A) 2.05

(Q) Query the reported log10(IC50) for CDK6/cyclin D1 (Homo sapiens); item: CCN1CCN(Cc2ccc(Nc3ncc(F)c(-c4ccc5c(c4)OCO5)n3)nc2)CC1
(A) 2.40

(Q) Item CCN1CCN(C(=O)c2ccc(Nc3ncc(F)c(-c4ccc5c(c4)CCNC5=O)n3)nc2)CC1 with CDK6/cyclin D1 (Homo sapiens) - log10(IC50)?
(A) 1.78

(Q) API: value(readout=log10(IC50), system=CDK6/cyclin D1 (Homo sapiens)) for record CC(C)N1CCN(Cc2ccc(Nc3ncc(F)c(-c4ccc5c(c4)CCN(C(C)C)C5=O)n3)nc2)CC1
(A) 2.81

Continuing:
(Q) Which measured log10(IC50) belongs to CC(C)N1CCN(C(=O)c2ccc(Nc3ncc(F)c(-c4ccc5c(c4)OCCO5)n3)nc2)CC1 , tested on CDK6/cyclin D1 (Homo sapiens)?
(A) 2.02

(Q) Query log10(IC50) on CDK6/cyclin D1 (Homo sapiens) for O=C(c1ccc(Nc2ncc(F)c(-c3ccc4c(c3)OCCO4)n2)nc1)N1CCNCC1
(A) 2.07

(Q) So what log10(IC50) did CN1CCN(c2ccc(Nc3ncc(F)c(-c4ccc5c(c4)OCO5)n3)nc2)CC1 get with CDK6/cyclin D1 (Homo sapiens)?
(A) 3.06

(Q) // lookup log10(IC50) | system=CDK6/cyclin D1 (Homo sapiens) | key= CC(C)N1CCN(C(=O)c2ccc(Nc3ncc(F)c(-c4ccc5c(c4)OCO5)n3)nc2)CC1
(A) 2.47

(Q) Form: Entry = O=C1NCCc2cc(-c3nc(Nc4ccc(N5CCNCC5)cn4)ncc3F)ccc21 | System = CDK6/cyclin D1 (Homo sapiens) | log10(IC50) = ____
(A) 1.56

(Q) Form: Entry = Fc1cnc(Nc2ccc(N3CCNCC3)cn2)nc1-c1ccc2c(c1)OCCO2 | System = CDK6/cyclin D1 (Homo sapiens) | log10(IC50) = ____
(A) 1.91

(Q) Fill in the recorded log10(IC50) for this compound, with CDK6/cyclin D1 (Homo sapiens) as test system: CCN1CCN(C(=O)c2ccc(Nc3ncc(F)c(-c4ccc5c(c4)CCN(C(C)C)C5=O)n3)nc2)CC1
(A) 2.50

(Q) Lab request: please report log10(IC50) under test system CDK6/cyclin D1 (Homo sapiens) for CCN1CCN(C(=O)c2ccc(Nc3ncc(F)c(-c4ccc5c(c4)OCCC5=O)n3)nc2)CC1
(A) 2.53

(Q) Recall the recorded log10(IC50) for Fc1cnc(Nc2ccc(N3CCNCC3)cn2)nc1-c1ccc2c(c1)OCO2 with CDK6/cyclin D1 (Homo sapiens) and state it.
(A) 2.08

(Q) Checklist item: log10(IC50) tested on CDK6/cyclin D1 (Homo sapiens), entry CCN1CCN(Cc2ccc(Nc3ncc(F)c(-c4ccc5c(c4)OCCO5)n3)nc2)CC1 , value?
(A) 1.99

Data origin, for the record: ChEMBL document CHEMBL5096234
